assay: 2-week dog toxicity and toxicokinetic study; type: in vivo; conditions: male, beagle, in vivo, po, 10 mg/kg/day, males, 10 mg/kg/day, Day 0
quantity.name: Cmax (ng/mL)
Numbers only; they are read as ng/mL.

# return recorded Cmax for entry Clc1ccc([C@]23CNC[C@H]2C3)cc1Cl [amitifadine]
3830

----------
experiment: Single rising oral dose (10-150 mg IR) safety, tolerance and pharmacokinetics in healthy male volunteers; type: in vivo, human; settings: male, human, plasma, oral, 150 mg, Geometric Mean; read-out: Tmax
quantity.name: Tmax (h)
Numbers only; they are read as h.

# return recorded Tmax for entry Clc1ccc([C@]23CNC[C@H]2C3)cc1Cl [amitifadine]
1.63
